# Tested on: Pa16c cells
# Measurement Description: Pa16c Cell Proliferation Assay
# Format: cell-based
# Experimental Parameters: Table 2, read-out: Inhibition of cell proliferation in Pa16c (IC50 class)
Measure Name: IC50

Please review the following examples before continuing.
>>> reported("Cc1ccc(NC(=O)c2cc(C(F)(F)F)cnn2)cc1-c1cc(NCCO)nc(-c2ccnc(NC(=O)C3CC3)c2)c1 [Example 113]")
"< 0.1 µM"
>>> reported("Cc1ccc(NC(=O)c2cc(C(C)(F)F)cnn2)cc1-c1cncc(-c2cc(NC(=O)C3CC3)ncn2)c1 [Example 63]")
"0.5 to 1 µM"
>>> reported("Cc1ccc(NC(=O)c2cc(C(F)(F)F)cnn2)cc1-c1cc(N[C@H](C)CO)cc(-c2cc(NC(=O)C3CC3)ncn2)c1 [Example 123]")
"< 0.1 µM"
>>> reported("Cc1ccc(NC(=O)c2ccc(C(F)(F)F)nc2)cc1-c1cncc(-c2cc(NC(=O)C3CC3)ncn2)c1 [Example 75]")
"1 to 10 µM"
>>> reported("Cc1ccc(NC(=O)c2cc(C(F)(F)F)cnn2)cc1-c1ccnc(-c2ccnc(NC(=O)CN(C)C)c2)c1 [Example 52]")
"0.5 to 1 µM"

Lab note: measured IC50 of Cc1ccc(NC(=O)c2cncc(C(F)(F)F)c2)cc1-c1ccnc(-c2ccnc(NC(=O)C3CC3)c2)c1 [Example 78] was 1 to 10 µM

The molecule listed as Cc1ccc(NC(=O)c2cc(C(F)(F)F)cnn2)cc1-c1ccnc(-c2ccnc(N)c2)c1 [Example 2] shows IC50 equal to < 0.1 µM
